Recorded values, source patent EP0451130A2.

- Assayed system: human uPA (Homo sapiens)
- Construct: purchased
- Experiment: in vitro uPA chromogenic substrate assay (glutaryl-glycyl-arginyl-p-nitroanilide, absorbance 405nm)
- Assay type: biochemical
- Experimental conditions: read-out: % INHIBITION OF uPA ACTIVITY 100 mM INHIBITOR
This listing pairs molecules with measured inhibition at 100 µM.
Show the value, then the unit it is measured in.

# Molecule, inhibition at 100 µM
rows = [
    ("Cc1ccc(CNC(=N)NC(=O)c2nc(Cl)c(NCc3ccc(Cl)cc3)nc2N)c(C)c1 [CBDMB]", "63.4%"),
    ("NC(=NCc1ccccc1)NC(=O)c1nc(Cl)c(N)nc1N [BENZAMIL]", "7.7%"),
    ("NC(N)=NC(=O)c1ncc(N)nc1N [Compound 6-HA]", "38.2%"),
    ("NC(N)=NC(=O)c1nc(F)c(N)nc1N [Compound 6-FA]", "27.9%"),
]

Alright, here's another molecule for you.
I'd like to know its inhibition at 100 µM. The molecule in question is CC(C)CN(C)c1nc(N)c(C(=O)N=C(N)N)nc1Cl [MIBA] 57.3%
